// reported AUC(0-t) per item
# test_name: AUC (last) in Swiss Webster mouse plasma at 100 umol/kg, ip
# Format: ADME, cell-free
# Set-up: dose 100 umol/kg, route intraperitoneal, time 0 - last
# unit: µM·h | format: bare number

[
  {
    "line_notation": "Cc1ccc2c(NCc3ccco3)nc(NC(C)C)nc2c1",
    "AUC(0-t) [µM·h]": 4.6
  }
]

Documented AUC(0-t) of CCCCNc1nc(NCc2ccccc2)nc2ccccc12 : 11

====

# test_name: Elimination half life in Swiss Webster mouse plasma at 100 umol/kg, ip
# Format: ADME, cell-free
# condition_info: read-out: beta t1/2 (converted)
Items are presented alongside their recorded half-life.

[
  {
    "line_notation": "CCCCNc1nc(NCc2ccccc2)nc2ccccc12",
    "half-life": "20 h"
  }
]

Next up:
Input Cc1ccc2c(NCc3ccco3)nc(NC(C)C)nc2c1 . Output half-life: 5.4 h

====

# Test system: Liver
# test_name: Cmax in Swiss Webster mouse liver at 100 umol/kg, ip
# Type: ADME, tissue-based
# Design: dose 100 umol/kg, route intraperitoneal
# condition_info: in vivo
readout_name: Cmax (µM)
// note: answer is a bare numeric in µM

Memo: Cc1ccc2c(NCc3ccco3)nc(NC(C)C)nc2c1 , reported Cmax: 48

The recorded Cmax for CCCCNc1nc(NCc2ccccc2)nc2ccccc12 is 148

====

# test_name: Distribution coefficient, log D of the compound at pH 7.4
# Assay type: physicochemical
# condition_info: octanol/water
Each entry below carries its recorded logD.
Write the number on its own, no unit after it.

[
  {
    "line_notation": "COc1cccc2nc(NC(C)C)nc(NCc3ccco3)c12",
    "logD": 3.35
  },
  {
    "line_notation": "CC(C)Nc1nc(NCc2ccco2)c2cc(Cl)ccc2n1",
    "logD": 3.99
  },
  {
    "line_notation": "CC(C)Nc1nc(NCc2ccco2)c2cccc(Cl)c2n1",
    "logD": 3.96
  }
]

For record Cc1cccc2nc(NC(C)C)nc(NCc3ccco3)c12 the listed logD is 3.55

Measured logD of CCOC(=O)CNc1nc(NC(C)C)nc2ccccc12 : 2.54

Field logD (entry CCCCNc1nc(NCc2ccccc2)nc2ccccc12 ) reads 3.84

logD reported for this compound Cc1ccc2nc(NC(C)C)nc(NCc3ccco3)c2c1 : 3.63

get_value(item= CC(C)Nc1nc(NCc2ccco2)c2ccccc2n1 , readout=logD) returns 3.15

====

Each item that follows carries a reported Cmax.
# Test system: Liver
# test_name: Cmax in Swiss Webster mouse liver at 100 umol/kg, po
# Format: ADME, tissue-based
# Design: dose 100 umol/kg, route oral
# condition_info: in vivo
Quick note: number first, unit second.

[
  {
    "line_notation": "CCCCNc1nc(NCc2ccccc2)nc2ccccc12",
    "system_name": "Liver",
    "readout_name": "Cmax",
    "reported_value": "15.8 µM"
  }
]

Shifting focus to the compound that follows.
Please fill in: Cmax reported for Cc1ccc2c(NCc3ccco3)nc(NC(C)C)nc2c1 = 5.2 µM

====

# test_name: Distribution coefficient, log D of the compound at pH 3
# Assay type: physicochemical
# condition_info: octanol/water
readout_name: logD

[
  {
    "line_notation": "CC(C)Nc1nc(N(C)C)c2ccccc2n1",
    "logD": 1.64
  },
  {
    "line_notation": "CNc1nc(NCc2ccccc2)c2ccccc2n1",
    "logD": 2.11
  },
  {
    "line_notation": "Cc1ccc2nc(NC(C)C)nc(NCc3ccco3)c2c1",
    "logD": 1.55
  },
  {
    "line_notation": "COc1cccc2c(NCc3ccco3)nc(NC(C)C)nc12",
    "logD": 2.99
  },
  {
    "line_notation": "Cc1cccc2nc(NC(C)C)nc(NCc3ccco3)c12",
    "logD": 2.44
  }
]

Proceed to the following item.
# logD of CCOC(=O)CNc1nc(NC(C)C)nc2ccccc12 = 1.73

====

Let's look at some compounds and their measured permeability.
# condition_info: pampa, pH 7.4
# Description: Passive transcellular permeability of the compound at pH 7.4 by PAMPA
Please don't drop the unit; write it after the number.

Below: 4 compounds and their reported permeability.
[
  {
    "line_notation": "COc1ccc2c(NCc3ccco3)nc(NC(C)C)nc2c1",
    "permeability": "1330 ×10⁻⁶ cm/s"
  },
  {
    "line_notation": "CNc1nc(NCc2ccccc2)nc2ccccc12",
    "permeability": "1720 ×10⁻⁶ cm/s"
  },
  {
    "line_notation": "COc1ccc2nc(NC(C)C)nc(NCc3ccco3)c2c1",
    "permeability": "1010 ×10⁻⁶ cm/s"
  },
  {
    "line_notation": "COc1cccc2nc(NC(C)C)nc(NCc3ccco3)c12",
    "permeability": "624 ×10⁻⁶ cm/s"
  }
]

Now for another entry.
permeability in this record for CC(C)Nc1nc(NCc2ccco2)c2ccccc2n1 : 883 ×10⁻⁶ cm/s

====

# System: Leishmania donovani
# test_name: Antileishmanial activity against clinical isolate Leishmania donovani BPK206/0 infected in mouse J774A1 cells by colorimetric assay
# condition_info: BPK206/0, J774.A1
readout_name: EC50 (nM)
Quick reminder: number only, in nM, skip the unit.

Some compounds with recorded EC50:
[
  {
    "line_notation": "Cc1ccc2c(NCc3ccco3)nc(NC(C)C)nc2c1",
    "quantity_unit": "nM",
    "EC50": 4200
  },
  {
    "line_notation": "CNc1nc(NCc2ccccc2)nc2ccccc12",
    "quantity_unit": "nM",
    "EC50": 2800
  }
]

Record CCCCNc1nc(NCc2ccccc2)nc2ccccc12 . Reported EC50: 2000

====

# test_name: physchem
# condition_info: pampa, pH 4
# Description: Passive transcellular permeability of the compound at pH 4 by PAMPA
Known Papp of a selection of molecules
Numbers only; they are read as ×10⁻⁶ cm/s.

[
  {
    "molecule": "CNC(=C[N+](=O)[O-])NCCSCc1ccc(CN(C)C)o1.Cl [RANITIDINE HYDROCHLORIDE]",
    "quantity_unit": "×10⁻⁶ cm/s",
    "reported_value": 2.2
  }
]

// next entry
The measured Papp associated with NC(=O)N1c2ccccc2C=Cc2ccccc21 [CARBAMAZEPINE] reads 108

====

# test_name: Selectivity index, ratio of EC50 for mouse J774A1 cells to EC50 for intracellular amastigote stage of Leishmania donovani MHOM/ET/67/L82
# Assay type: toxicity, cell-based, J774.A1
# condition_info: read-out: Ratio EC50
readout_name: selectivity ratio
Respond using a number only.

[
  {
    "line_notation": "COc1cccc2c(NCc3ccco3)nc(NC(C)C)nc12",
    "selectivity ratio": 9.4
  },
  {
    "line_notation": "FC(F)(F)CNc1nc(NCc2ccco2)c2ccccc2n1",
    "selectivity ratio": 6.4
  },
  {
    "line_notation": "CCCCNc1nc(NCCCC)c2ccccc2n1",
    "selectivity ratio": 3
  }
]

Next compound, please.
selectivity ratio reading for CCCCNc1nc(NCc2ccccc2)c2ccccc2n1 : 7.8

====

# condition_info: pampa, pH 7.4
readout_name: permeability (×10⁻⁶ cm/s)
Report as a plain number; the unit ×10⁻⁶ cm/s is understood.

[
  {
    "line_notation": "COc1cccc2c(NCc3ccco3)nc(NC(C)C)nc12",
    "permeability / ×10⁻⁶ cm/s": 1060
  }
]

Please fill in: permeability reported for CC(C)Nc1nc(NCc2ccco2)c2cc(Cl)ccc2n1 = 1630

permeability measured on CC(C)Nc1nc(NCc2ccco2)c2c(Cl)cccc2n1 = 1240

Query c1ccc(CNc2nc(Nc3ccccc3)nc3ccccc23)cc1 yields permeability of 1480

Record Cc1cccc2c(NCc3ccco3)nc(NC(C)C)nc12 , field permeability: 666

# permeability of CC(C)Nc1nc(NCc2ccco2)c2cccc(Cl)c2n1 = 1330

====

# Tested on: Spleen
# test_name: Cmax in Swiss Webster mouse spleen at 100 umol/kg, po
# Format: ADME, tissue-based
# Parameters: dose 100 umol/kg, route oral
# condition_info: in vivo
readout_name: Cmax (µM)
A number alone suffices; assume µM.

[
  {
    "line_notation": "CCCCNc1nc(NCc2ccccc2)nc2ccccc12",
    "quantity_unit": "µM",
    "reported_value": 7
  }
]

Now take the following compound into account.
Recorded Cmax (compound Cc1ccc2c(NCc3ccco3)nc(NC(C)C)nc2c1 ): 0.9

====

# test_name: Elimination half life in Swiss Webster mouse plasma at 100 umol/kg, po
# Type: ADME, cell-free
readout_name: half-life (h)
Record the value in h, omitting the unit from your answer.

The value of half-life measured for the molecule Cc1ccc2c(NCc3ccco3)nc(NC(C)C)nc2c1 turned out to be 20

====

# test_name: Cmax in Swiss Webster mouse plasma at 100 umol/kg, ip
# Assay type: ADME, cell-free
# Set-up: dose 100 umol/kg, route intraperitoneal
readout_name: Cmax (µM)
# output: bare number, implied unit µM

[
  {
    "line_notation": "CCCCNc1nc(NCc2ccccc2)nc2ccccc12",
    "Cmax (µM)": 5.21
  }
]

# compound Cc1ccc2c(NCc3ccco3)nc(NC(C)C)nc2c1 ; its Cmax = 2.67
